B1: glmS ribozyme (parent)
chain: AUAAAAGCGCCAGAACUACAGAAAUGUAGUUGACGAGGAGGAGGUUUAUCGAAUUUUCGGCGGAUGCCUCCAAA

# Variants of: B1
# measurement-description: self-cleavage kobs at 160 uM GlcN6P; higher = faster cleavage; RNA array
# condition-info: with glucosamine-6-phosphate
This sample holds only a part of the variants without activity.
property-name: self-cleavage kobs at 160 uM GlcN6P

Quick check: self-cleavage kobs at 160 uM GlcN6P of G37C A42C C71G ? < 1e-05 s⁻¹

Now the same for G35C C50A G51U A52C < 1e-05 s⁻¹

Now the same for A15G U55A 0.00144 s⁻¹

Now the same for A36G A53G < 1e-05 s⁻¹

Now the same for G40U G59A < 1e-05 s⁻¹

***
Quick check: self-cleavage kobs at 160 uM GlcN6P of C11U U55G C71A ? 3.73e-05 s⁻¹

Now the same for G29A G32A 8.75e-05 s⁻¹

Now the same for C11U G40C G43A G60U U69G C70U < 1e-05 s⁻¹

Now the same for U54G C70U 0.000836 s⁻¹

Now the same for C11G U47A < 1e-05 s⁻¹

Now the same for G29A U55G 5.56e-05 s⁻¹

Now the same for A15U U56G 0.000265 s⁻¹

Now the same for A42U U57C < 1e-05 s⁻¹

Now the same for A1C 0.00363 s⁻¹

Now the same for U55C C61U G63U < 1e-05 s⁻¹

Now the same for U31G C71U 0.000479 s⁻¹

Now the same for C16G G43A < 1e-05 s⁻¹

Now the same for U55G U69C 0.000229 s⁻¹

Now the same for G43U C61U < 1e-05 s⁻¹

Now the same for A33U G43U < 1e-05 s⁻¹

Now the same for G38A G41A C71A < 1e-05 s⁻¹

Now the same for G37C G41A C50G G60A C67G C68A 9.12e-05 s⁻¹
